Ref: ChEMBL document CHEMBL2086341

- System: IMR-90
- PROTOCOL TEXT: Cytotoxicity against human IMR90 cells after 72 hrs by MTT assay
- Format: cell-based
- PROTOCOL CONDITIONS: IMR-90, 72 h
Listed here are molecules together with their documented IC50.
// units = µM; emit number, no label

Previously resolved entries follow.
>>> print(df.to_string())
                            chemical_string  system  unit_label  recorded_measurement
0  COc1ccc2c(c1)c(CC(=O)NCCN(C)C)c(C)n2C(=O)c1cc(OC)c(OC)c(OC)c1  IMR-90          µM                  17.2
1  COc1ccc2c(c1)c(CC(=O)NCCN(C)C)c(C)n2C(=O)c1ccc(Br)cc1  IMR-90          µM                  41.7

Prompt: For the molecule shown here, "COc1ccc2c(c1)c(CC(=O)NCCN(C)C)c(C)n2S(=O)(=O)c1ccccc1" , give the reported IC50.
Completion: 18.7

---

- System: SK-BR-3
- PROTOCOL TEXT: Antiproliferative activity against human SKBR3 cells after 72 hrs by MTT assay
- Type: functional, cell-based
- PROTOCOL CONDITIONS: SK-BR-3, 72 h
PROPERTY MEASURED: IC50 (µM)
Please give a number only; it is taken to be in µM.

                            chemical_string  property_measured  recorded_measurement
0  COc1ccc2c(c1)c(CC(=O)NCCN(C)C)c(C)n2C(=O)c1ccc(Br)cc1               IC50                  4.81
1  COc1ccc2c(c1)c(CC(=O)NCCN(C)C)c(C)n2C(=O)c1cc(OC)c(OC)c(OC)c1               IC50                  4.63

Prompt: # input compound: "COc1ccc2c(c1)c(CC(=O)NCCN(C)C)c(C)n2S(=O)(=O)c1ccccc1" ; wanted: its IC50
Completion: 6.39

---

- Test system: HT-29
- PROTOCOL TEXT: Antiproliferative activity against human HT-29 cells after 72 hrs by MTT assay
- Type: functional, cell-based
- PROTOCOL CONDITIONS: Homo sapiens, HT-29, 72 h; read-out: IC50
PROPERTY MEASURED: IC50 (µM)
Response body: numeric value in µM, unit text excluded.

                                   compound  property_measured  recorded_measurement
0  CC1=C(CC(=O)NCCN(C)C)c2cc(F)ccc2/C1=C\c1ccc(Cl)cc1               IC50                  12.4
1  COc1ccc2c(c1)c(CC(=O)NCCN(C)C)c(C)n2S(=O)(=O)c1ccccc1               IC50                   7.7
2  CCCCCCNC(=O)Cc1c(C)n(C(=O)c2ccc(Cl)cc2)c2ccc(OC)cc12               IC50                  1330
3  CC1=C(CC(=O)NCCN(C)C)c2cc(F)ccc2/C1=C\c1ccc2ccccc2c1               IC50                   271
4  COc1ccc2c(c1)c(CC(=O)NCCN(C)C)c(C)n2C(=O)c1cc(OC)c(OC)c(OC)c1               IC50                   2.7

Prompt: May I ask what IC50 has been recorded for "COc1ccc2c(c1)c(CC(=O)NCCN(C)C)c(C)n2C(=O)c1ccc(Cl)cc1" ?
Completion: 170

Prompt: Report IC50 for "COc1cc(/C=C2/C(C)=C(CC(=O)NCCN(C)C)c3cc(F)ccc32)cc(OC)c1OC" please.
Completion: 140

Prompt: Could you tell me which IC50 is on file for "CC1=C(CC(=O)NCCN(C)C)c2cc(F)ccc2/C1=C\c1ccc(Br)cc1" ?
Completion: 20

Prompt: Endpoint output: IC50 of CC1=C(CC(=O)NCCCN(C)C)c2cc(F)ccc2/C1=C\c1ccc([S+](C)[O-])cc1 (centres undefined) . Value?
Completion: 465
